Provenance of the data: patent US20230408517A1

biological target: T1, recombinant monomeric SARS-CoV-2 S1 protein, his-tagged (SARS-CoV-2, UniProt P0DTC2 16-681); experiment: flow cytometry, blocking of binding to hACE-2 cells
T1 construct: domain: S1
metric: percent blocking (%)
Dear colleague, please return just the value in %, with no unit written.

binder="1035414 (antibody, V domains shown) VH: QVQLKQSGAELVRPGASVKLSCKTSGYIFTSYWIHWVKQRSGQGLEWIARIYPGTGNTYYNEKFKGKATLTADKSSTTAYMQLSSLKSEDSAVYFCARGEDNLYYYAMDYWGQGTSVTVSS VL: NIVLTQSPASLAVSLGQRATISCRASESVDSYGTSFMHWYQQKPGQPPKLLIYLASNLESGVPASFSGSGSRTDFTLTIDPVEADDAATYYCQQNNEDPWTFGGGTKLEIK" unit_tag=% reported=25.9

Q. Entry under review: 1035433 (antibody, V domains shown) VH: QVQLQQSGPQLVRPGASVKISCKASGYSFTIYWMHWVQQRPGQGLEWIGMIDPSDSETRLNQKFKDKATLTVDKSSSTAYMQLSSPTSEDSAVYYCARRGDYNFDYWGQGTTLTVSS VL: DIVMTQAAPSVPATPGESVSISCRSSKSLLHSNGNTYLYWFLQRPGQSPQLLIFRMSNLASGVPDRFSGSGSGTAFTLRISRVEAEDVGVYYCMQHLEYPYTFGGGTKLEIK . Reported percent blocking?
A. 9.3
